- Test system: A549
- Protocol Description: relative viability (normalised to negative control = 1, bortezomib = 0) (fraction); higher = less cytotoxic
- Experimental Context: inflammatory serum-free RHB-A with cytokines + LPS; 5 d + 24 h CellTiter-Blue; compound 300 nM; GSK126 pretreatment: 5 uM GSK126
Structures can show the parent of a compound that is named as a salt.
Quantity Name: relative viability
Reply: number alone, nothing else.

// solved cases for relative viability follow
>  <Compound>
O=c1cc(N2CCOCC2)oc2c(-c3ccccc3)cccc12

>  <Test System>
A549

>  <relative viability>
0.748

$$$$
>  <Compound>
O=C(Nc1cccc(Cl)c1)Nc1ncc(CCNc2ncnc3ccsc23)s1 [SNS-314 Mesylate]

>  <Test System>
A549

>  <relative viability>
0.689

$$$$
>  <Compound>
Cc1cnc(NC(=O)Nc2cc(Br)c(C)cc2OC[C@@H]2CNCCO2)cn1

>  <Test System>
A549

>  <relative viability>
0.414

$$$$
>  <Compound>
Cc1ccc(-c2cc(C(F)(F)F)nn2-c2ccc(S(N)(=O)=O)cc2)cc1 [Celecoxib]

>  <Test System>
A549

>  <relative viability>
0.783

$$$$

Consider the additional compound presented here.
stdin: Name the reported relative viability value associated with the compound N#CC1(c2ccc(NC(=O)c3cccnc3NCc3ccncc3)cc2)CCCC1 [Apatinib (YN968D1)]
stdout: 0.936

====

- System: A549
- Protocol Description: relative viability (normalised to negative control = 1, bortezomib = 0) (fraction); higher = less cytotoxic
- Experimental Context: inflammatory serum-free RHB-A with cytokines + LPS; 5 d + 24 h CellTiter-Blue; compound 30 nM; GSK126 pretreatment: 5 uM GSK126
Where a name gives a salt, the structure may show the parent alone.
Quantity Name: relative viability
Reply: number alone, nothing else.

// solved cases for relative viability follow
>  <Molecule>
COc1c2occc2cc2ccc(=O)oc12

>  <Numeric Readout>
0.902

$$$$
>  <Molecule>
COc1cc2nccc(Oc3ccc(NC(=O)Nc4ccc(F)cc4F)c(F)c3)c2cc1OC

>  <Numeric Readout>
0.86

$$$$
>  <Molecule>
CCN1CCN(Cc2ccc(-c3cc4c(N[C@H](C)c5ccccc5)ncnc4[nH]3)cc2)CC1

>  <Numeric Readout>
0.695

$$$$
>  <Molecule>
CC(C)(C)Cn1c(N)nc2ccc(-c3[nH]c(C(C)(C)C)nc3-c3ccc(F)cc3)nc21

>  <Numeric Readout>
1.11

$$$$
>  <Molecule>
O=c1cc(N2CCOCC2)oc2c(-c3ccccc3)cccc12

>  <Numeric Readout>
0.773

$$$$

stdin: Name the reported relative viability value associated with the molecule CNC(=O)c1ccc(C)c(-n2c(C)cc(OCc3ccc(F)cc3F)c(Br)c2=O)c1
stdout: 1.15

stdin: Name the reported relative viability value associated with the molecule FC(F)c1nc2ccccc2n1-c1nc(N2CCOCC2)nc(N2CCOCC2)n1
stdout: 0.684

stdin: Name the reported relative viability value associated with the molecule Oc1ccc(-c2nc(-c3ccc(F)cc3)c(-c3ccncc3)[nH]2)cc1
stdout: 1.08

stdin: Name the reported relative viability value associated with the molecule CCN(CC)CCNC(=O)c1c(C)[nH]c(/C=C2\C(=O)Nc3ccc(F)cc32)c1C [Sunitinib; Sunitinib Malate; Sunitinib (free base)]
stdout: 0.842

stdin: Name the reported relative viability value associated with the molecule O=C1C(c2c(O)[nH]c3ccccc23)=Nc2ccccc21
stdout: 0.788

stdin: Name the reported relative viability value associated with the molecule C[C@]12CC[C@@H]3c4ccc(O)cc4C[C@@H](CCCCCCCCC[S+]([O-])CCCC(F)(F)C(F)(F)F)[C@H]3[C@@H]1CC[C@@H]2O (stereo not given in full)
stdout: 0.901

stdin: Name the reported relative viability value associated with the molecule CO[C@@H](C(=O)N1Cc2[nH]nc(NC(=O)c3ccc(N4CCN(C)CC4)cc3)c2C1)c1ccccc1
stdout: 0.626

stdin: Name the reported relative viability value associated with the molecule CN(C)/N=N/c1[nH]cnc1C(N)=O
stdout: 0.931

stdin: Name the reported relative viability value associated with the molecule O=c1[nH]c(=O)n([C@H]2C[C@H](O)[C@@H](CO)O2)cc1F
stdout: 0.895

stdin: Name the reported relative viability value associated with the molecule COc1cc(Nc2ncc3c(n2)-c2ccc(Cl)cc2C(c2c(F)cccc2OC)=NC3)ccc1C(=O)O
stdout: 0.804

stdin: Name the reported relative viability value associated with the molecule c1cncc(CN2CCC(n3ncc4c(N5CCOCC5)nc(-c5ccc6[nH]ccc6c5)nc43)CC2)c1
stdout: 0.861

stdin: Name the reported relative viability value associated with the molecule CC1=C(/C=C/C(C)=C/C=C/C(C)=C/C(=O)O)C(C)(C)CCC1 [Retinoic acid; Tretinoin; 13-cis-retinoic acid]
stdout: 1.04

stdin: Name the reported relative viability value associated with the molecule Cc1cc(Nc2cc(N3CCN(C)CC3)nc(/C=C/c3ccccc3)n2)n[nH]1
stdout: 0.897

stdin: Name the reported relative viability value associated with the molecule Cc1cc(C(C)Nc2ccccc2)c2nc(N3CCOCC3)cc(=O)n2c1 (stereo not given)
stdout: 0.763

stdin: Name the reported relative viability value associated with the molecule Cc1csc(-c2nnc(Nc3ccc(Oc4ncccc4-c4ccnc(N)n4)cc3)c3ccccc23)c1
stdout: 0.692

stdin: Name the reported relative viability value associated with the molecule C=CC(=O)Nc1cccc(Sc2nc(Nc3ccc(N4CCN(C)CC4)cc3)ncc2Cl)c1
stdout: 0.859

stdin: Name the reported relative viability value associated with the molecule O=C(Nc1cccc(Cl)c1)Nc1ncc(CCNc2ncnc3ccsc23)s1 [SNS-314 Mesylate]
stdout: 0.763

stdin: Name the reported relative viability value associated with the molecule CC(C)C[C@H](NC(=O)[C@H](CCc1ccccc1)NC(=O)CN1CCOCC1)C(=O)N[C@@H](Cc1ccccc1)C(=O)N[C@@H](CC(C)C)C(=O)[C@@]1(C)CO1
stdout: -0.00043

stdin: Name the reported relative viability value associated with the molecule COc1nc(N)nc2c1ncn2[C@@H]1O[C@H](CO)[C@@H](O)[C@@H]1O
stdout: 0.838

stdin: Name the reported relative viability value associated with the molecule CN(Cc1cnc2nc(N)nc(N)c2n1)c1ccc(C(=O)N[C@@H](CCC(=O)O)C(=O)O)cc1 [Methotrexate hydrate; Methotrexate]
stdout: 0.813

stdin: Name the reported relative viability value associated with the molecule O=c1[nH]cc(F)c(=O)[nH]1
stdout: 0.96
